- MEASURED_ON: HIV-1 JR-CSF Env W395A (HIV-1 (isolate JR-CSF)) (UniProt P20871)
- EXPERIMENT_DESCRIPTION: cell-based or functional assay
EXPERIMENTAL_READOUT: Fold IC50 increase relative to wild-type (fold)
Give bare numbers, in fold.

Query string: Please look up its Fold IC50 increase relative to wild-type: PGT-131 (antibody, V domains shown) VH: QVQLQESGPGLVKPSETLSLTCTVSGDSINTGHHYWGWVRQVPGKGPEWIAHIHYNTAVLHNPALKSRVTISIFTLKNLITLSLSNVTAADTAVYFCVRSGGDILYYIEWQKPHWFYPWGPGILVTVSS VL: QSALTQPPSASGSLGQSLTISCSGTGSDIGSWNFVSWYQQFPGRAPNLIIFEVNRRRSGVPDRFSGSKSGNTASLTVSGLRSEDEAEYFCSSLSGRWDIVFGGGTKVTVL
Result string: 0.5
